Measured viability, T/C, listed per entry.
- Test system: 415267-285-R-J2-PDC complex spheroid viability
- protocolSummary: Anticancer human tumor 415267-285-R-J2-PDC patient-derived breast carcinoma cell line growth inhibition [POLQ]
- statedConditions: second compound 10 µM; first compound 0.1 µM; hits give low values
# output: bare number, implied unit %

These recorded examples may help you get a feel for the data.
compound: CC1COCCN1c1cc(C2(S(C)(=N)=O)CC2)nc(-c2ccnc3[nH]ccc23)n1 (stereo unspecified) + COC1C(OC(N)=O)C(O)C(Oc2ccc3c(O)c(NC(=O)c4ccc(O)c(CC=C(C)C)c4)c(=O)oc3c2C)OC1(C)C
viability, T/C / %: 97.9
//
compound: O=C(Nc1ccc(O)c(NS(=O)(=O)c2ccc(F)cc2)c1)c1ccc(-c2ccccc2)cc1 + COC1C(OC(N)=O)C(O)C(Oc2ccc3c(O)c(NC(=O)c4ccc(O)c(CC=C(C)C)c4)c(=O)oc3c2C)OC1(C)C
viability, T/C / %: 110
//
compound: Nc1ccn(C2OC(CO)C(O)C2(F)F)c(=O)n1 (stereo unspecified) + COC1C(OC(N)=O)C(O)C(Oc2ccc3c(O)c(NC(=O)c4ccc(O)c(CC=C(C)C)c4)c(=O)oc3c2C)OC1(C)C
viability, T/C / %: 5.53
//
compound: CNCc1ccc(-c2[nH]c3cc(F)cc4c3c2CCNC4=O)cc1 + COC1C(OC(N)=O)C(O)C(Oc2ccc3c(O)c(NC(=O)c4ccc(O)c(CC=C(C)C)c4)c(=O)oc3c2C)OC1(C)C
viability, T/C / %: 108
//
compound: CC1COCCN1c1cc(-c2ccnn2C)c2ccnc(-c3ccn[nH]3)c2n1 (stereo unspecified) + Cc1cccc(N(C)C(=O)C2C(O)CCN2c2nc(C)cc(C(F)(F)F)c2C#N)c1
viability, T/C / %: 22.9

Please tell me the measured viability, T/C for O=C(c1cc(Cc2n[nH]c(=O)c3ccccc23)ccc1F)N1CCN(C(=O)C2CC2)CC1 + COC1C(OC(N)=O)C(O)C(Oc2ccc3c(O)c(NC(=O)c4ccc(O)c(CC=C(C)C)c4)c(=O)oc3c2C)OC1(C)C ; system: 415267-285-R-J2-PDC complex spheroid viability.
105

Please tell me the measured viability, T/C for CCCS(=O)(=O)Nc1ccc(F)c(C(=O)c2c[nH]c3ncc(-c4ccc(Cl)cc4)cc23)c1F + COC1C(OC(N)=O)C(O)C(Oc2ccc3c(O)c(NC(=O)c4ccc(O)c(CC=C(C)C)c4)c(=O)oc3c2C)OC1(C)C ; system: 415267-285-R-J2-PDC complex spheroid viability.
106

Please tell me the measured viability, T/C for CC1COCCN1c1cc(C2(S(C)(=N)=O)CC2)nc(-c2ccnc3[nH]ccc23)n1 (stereo unspecified) + Cc1cccc(N(C)C(=O)C2C(O)CCN2c2nc(C)cc(C(F)(F)F)c2C#N)c1 ; system: 415267-285-R-J2-PDC complex spheroid viability.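 Further: luminescence used as stand-in measure of viable cells; spheroids exposed to compounds for one week before readout; 100% = DMSO vehicle control viability.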
102

Please tell me the measured viability, T/C for CC1COCCN1c1cc(-c2ccnn2C)c2ccnc(-c3ccn[nH]3)c2n1 (stereo unspecified) + COC1C(OC(N)=O)C(O)C(Oc2ccc3c(O)c(NC(=O)c4ccc(O)c(CC=C(C)C)c4)c(=O)oc3c2C)OC1(C)C ; system: 415267-285-R-J2-PDC complex spheroid viability.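 Further: luminescence used as stand-in measure of viable cells; spheroids exposed to compounds for one week before readout; 100% = DMSO vehicle control viability.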
12.8

Please tell me the measured viability, T/C for CC1COCCN1c1cc(C2(O)CC3CCC(C2)O3)c2cnn(-c3ccn[nH]3)c2n1 (stereo unspecified) + Nc1ccc(C#CCN(C(=O)Cc2ncc(C(F)(F)F)cc2C(F)(F)F)c2ccc(F)cc2)nn1 ; system: 415267-285-R-J2-PDC complex spheroid viability.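 Further: luminescence used as stand-in measure of viable cells; spheroids exposed to compounds for one week before readout; 100% = DMSO vehicle control viability.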
6.98

Please tell me the measured viability, T/C for CC1COCCN1c1cc(C2(O)CC3CCC(C2)O3)c2cnn(-c3ccn[nH]3)c2n1 (stereo unspecified) + Cc1cccc(N(C)C(=O)C2C(O)CCN2c2nc(C)cc(C(F)(F)F)c2C#N)c1 ; system: 415267-285-R-J2-PDC complex spheroid viability.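 Further: luminescence used as stand-in measure of viable cells; spheroids exposed to compounds for one week before readout; 100% = DMSO vehicle control viability.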
6.79
